- Study system: p110β/p85α (Homo sapiens (Human), UniProt P42338)
- Sequence (P42338 whole entry): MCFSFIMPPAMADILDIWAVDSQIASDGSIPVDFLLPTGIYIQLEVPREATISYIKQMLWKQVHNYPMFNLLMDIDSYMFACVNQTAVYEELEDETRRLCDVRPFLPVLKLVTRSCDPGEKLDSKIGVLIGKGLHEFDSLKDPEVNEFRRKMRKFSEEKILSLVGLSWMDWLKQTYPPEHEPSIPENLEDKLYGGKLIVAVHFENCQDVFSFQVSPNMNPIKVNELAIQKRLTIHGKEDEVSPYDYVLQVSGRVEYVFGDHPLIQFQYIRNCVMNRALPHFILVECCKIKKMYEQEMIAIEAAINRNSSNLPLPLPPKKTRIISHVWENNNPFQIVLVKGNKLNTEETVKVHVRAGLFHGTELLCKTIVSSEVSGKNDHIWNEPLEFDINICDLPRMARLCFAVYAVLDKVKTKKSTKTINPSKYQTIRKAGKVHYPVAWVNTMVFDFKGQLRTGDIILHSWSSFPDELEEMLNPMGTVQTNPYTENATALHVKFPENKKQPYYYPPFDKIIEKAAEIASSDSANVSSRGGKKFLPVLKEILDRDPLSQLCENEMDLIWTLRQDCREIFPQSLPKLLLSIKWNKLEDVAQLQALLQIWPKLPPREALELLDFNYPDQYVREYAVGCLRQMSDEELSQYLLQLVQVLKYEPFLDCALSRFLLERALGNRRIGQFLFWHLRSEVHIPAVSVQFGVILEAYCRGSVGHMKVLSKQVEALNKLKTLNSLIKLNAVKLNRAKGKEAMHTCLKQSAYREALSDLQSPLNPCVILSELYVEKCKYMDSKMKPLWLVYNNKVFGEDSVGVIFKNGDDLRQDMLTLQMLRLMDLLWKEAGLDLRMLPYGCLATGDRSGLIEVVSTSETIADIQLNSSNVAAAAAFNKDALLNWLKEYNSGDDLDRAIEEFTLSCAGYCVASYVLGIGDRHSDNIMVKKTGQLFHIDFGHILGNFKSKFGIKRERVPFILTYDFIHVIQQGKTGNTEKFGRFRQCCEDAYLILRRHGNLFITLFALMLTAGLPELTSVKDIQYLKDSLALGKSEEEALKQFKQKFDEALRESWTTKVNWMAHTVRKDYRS
- Sequence (P27986 whole entry partner): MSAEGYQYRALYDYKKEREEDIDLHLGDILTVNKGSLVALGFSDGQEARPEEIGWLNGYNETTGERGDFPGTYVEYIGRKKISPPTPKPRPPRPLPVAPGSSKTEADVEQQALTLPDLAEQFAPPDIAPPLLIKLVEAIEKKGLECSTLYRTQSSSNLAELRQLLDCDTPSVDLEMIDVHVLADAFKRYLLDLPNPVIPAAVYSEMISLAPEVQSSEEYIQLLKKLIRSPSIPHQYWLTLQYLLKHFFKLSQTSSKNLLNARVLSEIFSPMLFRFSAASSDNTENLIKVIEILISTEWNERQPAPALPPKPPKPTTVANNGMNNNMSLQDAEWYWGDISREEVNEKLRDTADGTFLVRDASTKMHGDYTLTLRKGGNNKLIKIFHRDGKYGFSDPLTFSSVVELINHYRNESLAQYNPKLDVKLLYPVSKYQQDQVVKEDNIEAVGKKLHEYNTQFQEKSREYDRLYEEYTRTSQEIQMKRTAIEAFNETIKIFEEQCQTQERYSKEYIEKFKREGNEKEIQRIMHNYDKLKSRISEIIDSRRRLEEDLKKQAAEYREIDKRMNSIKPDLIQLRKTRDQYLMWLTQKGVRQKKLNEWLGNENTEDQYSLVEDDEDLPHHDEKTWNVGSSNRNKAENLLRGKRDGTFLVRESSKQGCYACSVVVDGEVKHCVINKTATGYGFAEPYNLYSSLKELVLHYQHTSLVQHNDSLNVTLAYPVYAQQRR
- Assay name: PI 3-Kinase (human) HTRF assay, p110β/p85α
- Assay type: biochemical
- Condition info: in vitro; read-out: PI3K β IC50
pIC50: −log10 of the molar value.
Observable: pIC50

Here's what some known entries look like.
Fill in the blank: the reported pIC50 of Nc1nc2cc(-c3ccc4ncc(NCCCN5CCCC5)nc4c3)ccc2o1 [compound 221] is ____.
> 6.00

Fill in the blank: the reported pIC50 of Nc1nc2cc(-c3ccc4ncn(CCN5CCOCC5)c(=O)c4c3)ccc2o1 [compound 289] is ____.
> 5.00

Fill in the blank: the reported pIC50 of CC(=O)N1CCN(C2CN(c3cnc4ccc(-c5ccc6oc(N)nc6c5)cc4n3)C2)CC1 [compound 327] is ____.
> 5.00

Fill in the blank: the reported pIC50 of CN1CCN(CCNC(=O)c2cnc3ccc(-c4ccc5oc(N)nc5c4)cn23)CC1 [compound 306] is ____.
> 6.00

Further cases:
Fill in the blank: the reported pIC50 of CC(=O)Nc1nc2ccc(-c3ccc4nc(N)oc4c3)cc2s1 [compound 242] is ____.
> 7.00

Fill in the blank: the reported pIC50 of Nc1nc2cc(-c3ccc4ncc(C(=O)N5CCC(O)C5)n4c3)ccc2o1 (stereo not shown) [compound 202] is ____.
> 5.00

Fill in the blank: the reported pIC50 of C[C@@H](N)C(=O)N1CCN(c2cnc3ccc(-c4ccc5oc(N)nc5c4)cc3n2)CC1 [compound 208] is ____.
> 6.00

Fill in the blank: the reported pIC50 of CC(C)[C@@H](N)C(=O)N1CCN(c2cnc3ccc(-c4ccc5oc(N)nc5c4)cc3n2)CC1 [compound 270] is ____.
> 6.00

Fill in the blank: the reported pIC50 of Nc1nc2cc(-c3ccc4ncc(N5CC[C@H](O)C5)nc4c3)ccc2o1 [compound 262] is ____.
> 6.00
